- Experiment Summary: qHTS Assay for Rab9 Promoter Activators; note: nearly all actives have a fitted effect of over 60% in size
- Condition Notes: Huh7 Rab9 promoter-luciferase reporter, luminescence, 24 h; series mostly up to 9.22 µM
Screen size: about 320,000 compounds; about 9,100 (2.8%) were called active. Roughly 3% stayed inconclusive and do not appear here. Calls come from the whole dose curve; as a rule, active = well fitted activation curve with a large enough effect; inconclusive = small, poorly fitted or top-dose-only effect; inactive = no such curve, though single readings can be large or run the other way. Many of the other results were omitted from the sample, so actives are more common in it than they were.
Write down one outcome, taken from active, inactive

CCn1c(SCC(=O)Nc2nccs2)nnc1-c1ccco1; inactive
CC(=O)Nc1ccc(/C=N/NC(=O)c2cccs2)cc1; active
CCn1nc(C(=O)NNC(=O)C2CSC3(C)CCC(=O)N23)c2ccccc2c1=O (stereo not drawn); inactive
S=C(NCc1ccc(Cl)cc1)NC1CCCCC1; inactive
O=C(NCCc1ccc(F)cc1)c1ccc(S(=O)(=O)N2CCCCC2)cc1; inactive

I'd appreciate the recorded outcome for O=C(CN(CC1CCCO1)C(=O)CNS(=O)(=O)c1ccc(F)cc1)NCc1ccco1 (stereo not drawn) from this test.
inactive

I'd appreciate the recorded outcome for O=C(CNC(=O)c1cccs1)N/N=C/c1cccc(Br)c1 from this test.
inactive

I'd appreciate the recorded outcome for Cc1cccnc1CC(C)NC(=O)c1cc(COc2cncc(Cl)c2)on1 (stereo not drawn) from this test.
inactive

I'd appreciate the recorded outcome for O=C(CSc1nnnn1C1CCCC1)N1CCCCC1 from this test.
active

I'd appreciate the recorded outcome for CC1CCCC(C)N1C(=O)CSc1nnnn1C1CCCC1 (stereo not drawn) from this test.
inactive

====

- Experiment Summary: qHTS Assay for Rab9 Promoter Activators; note: nearly all actives have a fitted effect of over 60% in size
- Condition Notes: Huh7 Rab9 promoter-luciferase reporter, luminescence, 24 h; series mostly up to 9.22 µM
About 9,100 (2.8%) of roughly 320,000 compounds were called active. Inconclusive results (about 3%) are left out. The call rests on the fitted dose curve; in most records, active means well fitted activation curve with a large enough effect; inconclusive means small, poorly fitted or top-dose-only effect; inactive means no such curve, though single readings can be large or run the other way. For the sample, actives were picked, then their nearest neighbours and some compounds at random.
Write down one outcome, taken from Yes for active, No for inactive

Illustrative cases are given below, each with its answer.
Cc1csc(NC(=O)CSc2nc(=O)n(CCCN(C)C)c3c2CCC3)n1; No
CCCC(NCC(=O)Nc1ccccc1C(=O)NC1CC1)c1ccccc1 (stereo not drawn); No
Cc1cc(/C=N/NC(=O)c2cccnc2)c(C)n1CC(C)C; Yes
COc1ccc(C(=O)NCc2nnc(SCCOc3ccccc3)n2C)cc1; No
COc1cccc(C(=O)NCCSc2ccc(Br)cc2)c1; No
CCO/N=C(/C)c1c(O)cc(-c2ccccc2)n(-c2ccccc2)c1=O; No
CC(=O)Nc1ccc(NC(=O)CCN2C(=O)C3CC=CCC3C2=O)cc1 (stereo not drawn); No
COc1ccccc1C1=CC(=O)C[C@H](c2ccc(F)cc2)C1; No
Cc1cc(SCc2c(F)cccc2Cl)nc(=O)[nH]1; No
Cc1nn(Cc2ccc(Cl)cc2)c(Cl)c1/C=N/NC(=O)c1cccnc1; No

I'd appreciate the recorded outcome for CSCCC(NC(=O)COc1ccccc1)C(=O)N(C)CC(=O)Nc1ccc(C)cc1 (stereo not drawn) from this test.
No

I'd appreciate the recorded outcome for O=C(/C=C/c1cccc([N+](=O)[O-])c1)OCC(=O)N1CCOCC1 from this test.
No

I'd appreciate the recorded outcome for CC(C)N(C(=O)CSc1nnc(NC2CC2)s1)c1ccccc1 from this test.
No

I'd appreciate the recorded outcome for CCCCN(C(=O)C(CCSC)N1C(=O)c2ccccc2C1=O)c1c(N)n(CCC)c(=O)[nH]c1=O (stereo not drawn) from this test.
No

====

- Experiment Summary: qHTS Assay for Rab9 Promoter Activators; note: nearly all actives have a fitted effect of over 60% in size
- Condition Notes: Huh7 Rab9 promoter-luciferase reporter, luminescence, 24 h; series mostly up to 9.22 µM
Out of some 320,000 compounds screened, about 9,100 (2.8%) were called active. Roughly 3% stayed inconclusive and do not appear here. Calls come from the whole dose curve; as a rule, active = well fitted activation curve with a large enough effect; inconclusive = small, poorly fitted or top-dose-only effect; inactive = no such curve, though single readings can be large or run the other way. The sample as a whole holds a higher share of actives than the screen did.
Write down one outcome, taken from t (active), f (inactive)

Illustrative cases are given below, each with its answer.
COc1ccc(Br)cc1C(=O)NC(=S)Nc1cc(-c2nc3ccccc3[nH]2)ccc1C; f
CCCOc1ccc(C(=O)NCCc2ccccc2)cc1; t
CCCc1ccc(OCCNC(=O)c2ccco2)cc1; f
c1ccc2[nH]c(-c3nc4ccccc4[nH]3)nc2c1; t
Cc1noc(C)c1COc1ccc(C(=O)NCCOc2ccccc2)cc1; f

I'd appreciate the recorded outcome for COc1ccc(OCCCC(=O)NCCc2ccccc2)cc1 from this test.
f

I'd appreciate the recorded outcome for O=C(NCCOc1ccccc1)c1ccccc1 from this test.
t

====

- Experiment Summary: qHTS Assay for Rab9 Promoter Activators; note: nearly all actives have a fitted effect of over 60% in size
- Condition Notes: Huh7 Rab9 promoter-luciferase reporter, luminescence, 24 h; series mostly up to 9.22 µM
The whole screen tested about 320,000 compounds, of which about 9,100 (2.8%) were called active. Another 3% or so got no clear call; they are omitted. The call rests on the fitted dose curve; in most records, active means well fitted activation curve with a large enough effect; inconclusive means small, poorly fitted or top-dose-only effect; inactive means no such curve, though single readings can be large or run the other way. For the sample, actives were picked, then their nearest neighbours and some compounds at random.
Write down one outcome, taken from active, inactive

CCN1C(=O)C(=O)N(CC(=O)Nc2cc(C)ccc2C)C1=O; inactive

I'd appreciate the recorded outcome for O=S(=O)(NC1CCN(S(=O)(=O)c2ccc3c(c2)OCCO3)CC1)c1c(F)cccc1F from this test.
inactive

I'd appreciate the recorded outcome for CC(C)(C)OC(=O)NCCCCCNC(=O)c1nc[nH]c1C(=O)NCc1ccccc1 from this test.
inactive

I'd appreciate the recorded outcome for Nc1ccn(CC(=O)N2CCN(c3ccccn3)CC2)c(=O)n1 from this test.
inactive

====

- Experiment Summary: qHTS Assay for Rab9 Promoter Activators; note: nearly all actives have a fitted effect of over 60% in size
- Condition Notes: Huh7 Rab9 promoter-luciferase reporter, luminescence, 24 h; series mostly up to 9.22 µM
About 9,100 (2.8%) of roughly 320,000 compounds were called active. Roughly 3% stayed inconclusive and do not appear here. Calls follow the shape of the dose curve; as a rule, active = well fitted activation curve with a large enough effect; inconclusive = small, poorly fitted or top-dose-only effect; inactive = no such curve, though single readings can be large or run the other way. The list comes from a sample in which actives are over-represented; it also holds close analogues and randomly drawn compounds.
Write down one outcome, taken from 1 for active, -1 for inactive

CCN(CC(=O)Nc1ccc(NC(C)=O)cc1)C(=O)CSC(=S)N1CCCC1; -1
COc1ccccc1-n1nnnc1SCC(=O)NC(=O)Cc1ccccc1; -1
COc1ccc(-c2cn3ccc(C)cc3n2)cc1; 1
CC(=O)c1ccc(N2Cc3ccccc3C2)cc1; 1

I'd appreciate the recorded outcome for NC(=O)Cc1ccc2c(c1)[nH]c1ccccc12 from this test.
-1

I'd appreciate the recorded outcome for CC(=O)c1ccc(N2CCN(CC(O)c3ccccc3)CC2)cc1 (configuration not stated) from this test.
-1

I'd appreciate the recorded outcome for Cc1nn(C(C)C(=O)N2CCOCC2)c(=O)c2nn(-c3ccccc3)c(C)c12 (configuration not stated) from this test.
-1

I'd appreciate the recorded outcome for COc1ccc(-n2c(-c3ccc(OC)c(OC)c3)n[nH]c2=S)cc1 from this test.
-1

I'd appreciate the recorded outcome for CCC(=O)NC(=S)Nc1ccc(NC(=O)c2ccco2)c(Cl)c1 from this test.
-1

I'd appreciate the recorded outcome for O=C(NNC(=O)c1ccco1)Nc1ccccc1 from this test.
-1

I'd appreciate the recorded outcome for CC(=O)c1ccc(N2CCN(C(=O)CCc3ccccc3)CC2)cc1 from this test.
-1

I'd appreciate the recorded outcome for COc1ccc2c(c1)c(C(=O)N/N=C/c1cccs1)c(C)n2C from this test.
-1

====

- Experiment Summary: qHTS Assay for Rab9 Promoter Activators; note: nearly all actives have a fitted effect of over 60% in size; note: potency is the fitted concentration of half-maximal effect
- Condition Notes: Huh7 Rab9 promoter-luciferase reporter, luminescence, 24 h; series mostly up to 9.22 µM
Among all 320,000 compounds or so, about 9,100 (2.8%) were called active. About 3% were inconclusive and are not listed. This is one part of a sample in which actives are shown more often than they occur.
Reported Metric: Potency

Consider the reported Potency for these compounds:
O=C(COC(=O)c1c(Cl)cccc1Cl)Nc1cccc(S(=O)(=O)NC2=NCCCCC2)c1; inactive
COc1ccccc1C(=O)Nc1ccc(C)c(S(=O)(=O)N2CCCCC2)c1; inactive
O=C(Nc1ccc(Br)cc1)C1CCC(=O)N1Cc1ccccc1Cl (stereo not given); inactive
S=c1[nH]nc(-c2cccnc2)n1/N=C/C(Cl)=C\c1ccccc1; 3.16 µM (active)
CCN(c1ccccc1)S(=O)(=O)c1cc(C(=O)NCc2ccccn2)ccc1C; inactive
O=C(COC(=O)c1ccc(Oc2ccccc2)cc1)Nc1nnc(-c2ccccc2)o1; inactive
COc1ccccc1-c1nnc(SCC(=O)N2CC(C)CC(C)C2)o1 (stereo not given); inactive
CCOC(=O)N1CCC(NC(=O)CCc2ccccc2)CC1; inactive
COc1ccc(C(=O)OCC(=O)c2cc(C)n(CC3CCCO3)c2C)cc1[N+](=O)[O-] (stereo not given); inactive
O=C(Nc1ccccc1N1CCOCC1)c1ccncc1; inactive

I have 5 compounds here; please give me Potency for each one.
1. Cc1noc(C)c1-c1ccc2ncnc(NC(C)c3ccco3)c2c1 (stereo not given)
2. O=C(COC(=O)Cc1ccc(Br)cc1)Nc1ccc(N2CCOCC2)cc1
3. CC(C)c1ccc(Nc2ncccc2C#N)cc1
4. CN(CC(=O)NCCc1ccc(F)cc1)CC(=O)Nc1ccc(F)c(F)c1F
5. Cn1nc(C(=O)OCC(=O)N(Cc2ccccc2)C(C)(C)C)c2ccccc2c1=O

1. inactive
2. inactive
3. 3.55 µM (active)
4. inactive
5. inactive

I have 3 compounds here; please give me Potency for each one.
1. CSc1ccccc1N1CCN(CCCCCC(=O)NC2CCCc3ccccc32)CC1 (stereo not given)
2. CC1CCCCC12NC(=O)N(CC(=O)Nc1ccc(S(=O)(=O)Nc3ncccn3)cc1)C2=O (stereo not given)
3. CC(C)Nc1ccc(-n2nc3ccccc3[n+]2[O-])cc1

1. inactive
2. inactive
3. 0.501 µM (active)

I have 2 compounds here; please give me Potency for each one.
1. CCCc1nc2oc3c(=O)[nH]cnc3c2c2c1COC(C)(C)C2
2. COc1ccc(OC)c(CN2CCN(C(=O)CNC(=O)c3cc(C)cc(C)c3)CC2)c1

["inactive", "inactive"]

I have 5 compounds here; please give me Potency for each one.
1. COc1ccccc1Nc1nnc(SC(C)C(=O)NC2CC2)s1 (stereo not given)
2. Nc1ccc(-c2nnc(-c3ccc(-c4ccccc4)cc3)o2)cc1
3. Cc1ccccc1-c1nc(C#N)c(NCc2ccco2)o1
4. CCN(CC)S(=O)(=O)c1ccc(OC)c(NC(=O)CCc2c(C)noc2C)c1
5. O=C(O)C1CCN(C(=O)OCc2ccccc2)CC1

1. inactive
2. 2.51 µM (active)
3. inactive
4. inactive
5. 4.47 µM (active)

I have 6 compounds here; please give me Potency for each one.
1. O=C(c1ccc(F)cc1)n1c(=S)nc2ccccn21
2. Cc1cc(-c2n[nH]c(=S)n2/N=C/C(Br)=C/c2ccccc2)n[nH]1
3. O=C(NCC1CCC(C(=O)O)CC1)OCc1ccccc1 (stereo not given)
4. Cn1c(N)c(C(=O)COC(=O)/C=C/c2cccc(C(F)(F)F)c2)c(=O)n(C)c1=O
5. O=C(COC(=O)c1ccccc1Br)Nc1nnc(-c2ccccc2)o1
6. C[C@H](NC(=O)c1[nH]cnc1C(=O)Nc1nccs1)c1ccccc1

1. 0.891 µM (active)
2. inactive
3. inactive
4. inactive
5. inactive
6. inactive

I have 5 compounds here; please give me Potency for each one.
1. COc1ccccc1OCC(=O)Nc1c2c(nn1-c1ccc(F)cc1)CS(=O)(=O)C2
2. CN(CCc1ccccc1)c1ccc([N+](=O)[O-])cn1
3. COc1ccccc1S(=O)(=O)NCc1ccc(C(=O)N(C)Cc2ccc(F)cc2)cc1
4. O=C(c1ccc(F)cc1)n1cc(C(=S)N2CCOCC2)c2ccccc21
5. c1ccc(-n2ncc3c2ncn2c(C4CCCCC4)nnc32)cc1

1. inactive
2. inactive
3. inactive
4. inactive
5. 3.98 µM (active)

I have 7 compounds here; please give me Potency for each one.
1. O=c1c2ccccc2ncn1/N=C/c1ccccc1
2. Cc1ccc(OCc2nc3ccccc3n2C)cc1
3. Nc1ccc(-c2nnc(-c3ccccc3)o2)cc1
4. Nc1ncc(-c2cc3ccccc3oc2=O)s1
5. CCN(CC)S(=O)(=O)c1cc(C(=O)Nc2ccccn2)ccc1C
6. CC(C)n1c(COc2ccccc2)nc2ccccc21
7. COc1ccccc1-c1oc2ccccc2c1C#CCCCCO

["0.447 µM (active)", "1.78 µM (active)", "3.98 µM (active)", "1.12 µM (active)", "1.78 µM (active)", "inactive", "inactive"]

I have 2 compounds here; please give me Potency for each one.
1. COc1cc(OC)c(N2CC(C(=O)Nc3cc(Cl)ccc3N3CCOCC3)CC2=O)cc1Cl (stereo not given)
2. CC1Cc2ccccc2N1S(=O)(=O)c1cccc(C(=O)NCC(c2ccco2)N2CCCC2)c1 (stereo not given)

1. inactive
2. inactive
